Could you please report measured composite z-score for the items listed next?
- protocol.text: binders of probe aFST on microarray, primary screen, stem cell growth factor project, biochemical, small-molecule microarray, fluorescence 635/667 (AID 1086);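 further: score merges 667 nm fluorescence with signal-to-noise of each printed compound spot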
- test.conditions: higher = more signal
Response field accepts a number only; no unit should be typed.

Enquiry: Supply recorded composite z-score for COC(=O)[C@@]1(Cc2ccc(F)cc2)[C@@H]2C(=CC(=O)[C@H]2CC(=O)C(=O)N(C)C)CN1C(=O)c1ccccc1 here.
Return: 1.45

Enquiry: Specify composite z-score for COc1ccc(CCNC(=O)[C@@H]2c3ccccc3C(=O)N(c3ccc(C)cn3)[C@H]2c2ccc(CO)cc2)cc1 and stop.
Return: -0.57

Enquiry: Read off the recorded composite z-score for COc1ccc(O[C@H]2C=C[C@@H](c3ccccc3)O[C@@H]2COC(=O)CCC(C)=NOC[C@@H](C)[C@H](OCc2ccccc2)C(C)C)cc1
Return: -0.504

Enquiry: Annotate the compound CCOC(=O)[C@H](CC(C)C)NC(=O)CCC1CC(OC(=O)NCCc2ccc(F)cc2)CC2(CCCC(COC(=O)NCc3ccccc3)O2)O1 (some centres undefined) with its measured composite z-score.
Return: 0.223

---

- target.system: Alpha-bungarotoxin (Bungarus multicinctus) (UniProt P60615)
- Sequence (P60615 whole entry, looked up): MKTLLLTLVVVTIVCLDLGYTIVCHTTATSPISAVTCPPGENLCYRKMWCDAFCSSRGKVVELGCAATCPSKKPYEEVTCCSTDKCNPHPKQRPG
- protocol.text: alpha-bungarotoxin binders on microarray, profiling panel, artefact control for SMM control protein annotation, biochemical, small-molecule microarray, Alexa647 label, 635/667 nm fluorescence (AID 1117)
- test.conditions: alpha-BTX-A647 binding fluorescence, higher = more signal
Field: composite z-score. Provide a value for each of the compounds that follow.
Provide a numeric answer; units are not to be included.

Enquiry: Provide measured composite z-score on Alpha-bungarotoxin (Bungarus multicinctus) (UniProt P60615) for COc1cccc([C@@H]2Oc3ccc(Br)cc3C(=O)[C@H]2O)c1 please.
Return: 0.599

Enquiry: Report composite z-score from Alpha-bungarotoxin (Bungarus multicinctus) (UniProt P60615) testing of Cc1ccc(C2CC=C(C(=O)O)CN2S(=O)(=O)c2ccc(C)cc2)cc1 (centres undefined)
Return: 0.802

Enquiry: Using Alpha-bungarotoxin (Bungarus multicinctus) (UniProt P60615) as the test system, report measured composite z-score of CCOC(=O)[C@H](Cc1ccccc1)NC(=O)CCC1CC(OC(=O)NCc2ccc3c(c2)OCO3)CC2(CCCC(COC(=O)NCC(c3ccccc3)c3ccccc3)O2)O1 (some centres undefined) .
Return: 0.363

Enquiry: Name the recorded composite z-score of CC(C)=CCCC(C)=CCON=C1[C@H]2CCn3c(=O)n(C)c(=O)n3[C@H]2[C@H](O)[C@@H]2O[C@H]12 , assay system Alpha-bungarotoxin (Bungarus multicinctus) (UniProt P60615).
Return: -0.0134

Enquiry: Report composite z-score from Alpha-bungarotoxin (Bungarus multicinctus) (UniProt P60615) testing of COc1ccc(O[C@H]2C=C[C@@H](c3ccccc3)O[C@@H]2COC(=O)CCC(C)=NOC[C@@H](C)[C@H](OCc2ccccc2)C(C)C)cc1
Return: -1.04

Enquiry: # lookup: Alpha-bungarotoxin (Bungarus multicinctus) (UniProt P60615) composite z-score, key = COc1ccc([Si](C)(C)[C@H]2[C@H](CC(=O)N3CCC[C@H]3CO)O[C@@]3(C(=O)N(Cc4cccc(N5C(=O)COc6ccccc65)c4)c4ccccc43)[C@@H]2C)cc1
Return: -0.654

Enquiry: Fetch value of composite z-score on Alpha-bungarotoxin (Bungarus multicinctus) (UniProt P60615) for O=C1C[C@@H](O)[C@@H](O)[C@@H]2[C@@H]3C(=O)N(C4CCCCC4)C(=O)[C@@H]3CC[C@H]12 .
Return: -0.0214

Enquiry: // output composite z-score; input CCOC(=O)CCN1C(=O)[C@H]2[C@H]3[C@H](O)[C@H](O)CC(=NOC[C@@H](O)COCc4ccco4)[C@@H]3CC[C@H]2C1=O ; system Alpha-bungarotoxin (Bungarus multicinctus) (UniProt P60615)
Return: 0.557

Enquiry: Supply composite z-score measured with Alpha-bungarotoxin (Bungarus multicinctus) (UniProt P60615) for C[C@@H]1CC[C@H]2C(=O)O[C@H](COc3ccc(C(C)(C)C)cc3)CN2[C@H]1c1ccc(Br)cc1 .
Return: 0.323

Enquiry: Under Alpha-bungarotoxin (Bungarus multicinctus) (UniProt P60615): report composite z-score of COCCOC(=O)N1C(=O)[C@@]2(c3ccccc31)[C@H](C(N)=O)[C@H]1C(=O)O[C@H](c3ccccc3)[C@H](c3ccccc3)N1[C@@H]2c1ccccc1OCCO .
Return: 2.62

Enquiry: # return composite z-score for COCCOC(=O)N1C(=O)[C@@]2(c3cc(C#Cc4ccc(OC)cc4)ccc31)[C@H](c1ccc(O)cc1)N1[C@H](c3ccccc3)[C@H](c3ccccc3)OC(=O)[C@H]1[C@@H]2C(N)=O , test system: Alpha-bungarotoxin (Bungarus multicinctus) (UniProt P60615)
Return: 1.16

Enquiry: Name the recorded composite z-score of CC(C)(C)N1CC=CC23O[C@@H]4C=CCCOC(=O)C4[C@H]2C(=O)N(CCCCCO)[C@@H]3C1=O (some centres undefined) , assay system Alpha-bungarotoxin (Bungarus multicinctus) (UniProt P60615).
Return: -0.949

Enquiry: # lookup: Alpha-bungarotoxin (Bungarus multicinctus) (UniProt P60615) composite z-score, key = O=C1[C@H]2[C@H]3[C@H](O)[C@H](O)CC(=NO[C@@H]4O[C@H](CO)[C@@H](O)[C@H](O)[C@H]4O)[C@H]3CC[C@H]2C(=O)N1Cc1ccc2c(c1)OCO2
Return: 1.02

Enquiry: Would you please give the reported composite z-score of CCCNC(=O)OC[C@H]1O[C@H](CCON=C[C@@H](OC)[C@H](C)C=CCC(=O)OC)C=C[C@@H]1Oc1ccc(OC)cc1 with Alpha-bungarotoxin (Bungarus multicinctus) (UniProt P60615)?
Return: 0.908

---

- protocol.text: basal HepG2 mitochondrial membrane potential changes, profiling panel, cell-based, JC-1 fluorescence, 24 h, 100 nL compound (AID 1167); further: test concentration not given here
- test.conditions: higher = more signal
value.type: z-score

Enquiry: For the compound COC(=O)[C@@]1(Cc2ccc(OC)cc2)[C@H]2c3cc(C(=O)N4CCCC4)n(Cc4cc(F)c(F)c(F)c4)c3C[C@H]2CN1C(=O)c1ccccc1 , report z-score.
Return: 1.31

Enquiry: // Input: c1ccc(C2NCCc3c2[nH]c2ccccc32)cc1 (centres undefined) . Output its z-score only.
Return: -2.18

Enquiry: Read the entry COc1ccc(OC[C@H]2Cc3c(-c4ccccc4)nc4c(c3CO2)CN(CCOc2ccccc2)CC4)cc1 and write its reported z-score.
Return: 3.51

Enquiry: Using the record for N#Cc1ccc(NN2C(C(O)c3cc(C(F)(F)F)cc(C(F)(F)F)c3)C=CC3C(=O)N(c4ccccc4)C(=O)C32)cc1 (centres undefined) , state its measured z-score.
Return: -2.78

---

- protocol.text: P. aeruginosa biofilm formation inhibitors, primary screen, strain PAO1, LB-PBS medium, absorbance 600 nm (AID 1176); further: test concentration not given here
- test.conditions: P. aeruginosa PAO1 growth/biofilm, A600, 12 h; higher = more signal
value.type: z-score
Answer as a number with no unit attached.

Enquiry: Kindly indicate its recorded z-score. Item: C#CCCCON=C1C[C@@H](O)[C@@H](O)[C@@H]2[C@@H]3C(=O)N(Cc4ccccc4)C(=O)[C@@H]3CC[C@H]12
Return: 0.495

Enquiry: Write down z-score measured for item CC(C)=NOCc1ccc(-c2cc(-c3ccccc3)no2)cc1
Return: -0.446

Enquiry: Provide one value: measured z-score of CC(=O)OC[C@H]1O[C@H](CCON=C[C@@H](C)[C@H](OCc2ccccc2)C(C)C)C=C[C@@H]1OC(C)=O
Return: 0.0039

Enquiry: For the compound CC(CCN1CCc2nc(-c3ccccc3)c(-c3ccccc3)cc2C1)=NO[C@H](C)c1cn([C@@H]2COC[C@H]2O)nn1 , give its measured z-score value.
Return: 0.408

---

- System: Fibrinogen (Alexa647-labelled)
- protocol.text: fibrinogen binders on compound microarrays, profiling panel, artefact control for SMM control-protein annotation, biochemical, small-molecule microarray, 635/667 nm fluorescence (AID 1131);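 further: z-score merges 667 nm fluorescence with per-spot signal-to-noise over triplicate slides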
- test.conditions: fibrinogen-A647 binding fluorescence, higher = more signal
value.type: composite z-score
# answer = number (no unit)

Enquiry: Return reported composite z-score. Input molecule: CCCC[C@@H]1C[C@H]1[C@@H](NS(=O)(=O)c1cccc2cccnc12)c1ccc(-c2ccccc2)cc1
Return: -0.809

Enquiry: Look up and state reported composite z-score for C=CC[C@@H]1C=C[C@H](ON=C[C@@H](OC)[C@H](C)C=CCC(=O)OC)[C@@H](CO)O1
Return: -0.613

Enquiry: Item C=CCOC(=O)[C@H]1[C@@H]2C(=O)O[C@@H](c3ccccc3)[C@@H](c3ccccc3)N2[C@@H](c2ccc(OCCOC(=O)[C@H]3C[C@H]4C(=O)N[C@@H](Cc5ccccc5)C(=O)N4[C@H]3c3ccc(O)cc3)cc2)[C@]12C(=O)Nc1ccccc12 : provide composite z-score
Return: 0.51

Enquiry: Answer with the recorded composite z-score for the molecule listed here: CCCC[C@@H](O)C1=C(C)C[C@H]2C(=O)N(Cc3ccccc3)C(=O)[C@H]2[C@H]1CO
Return: -0.0897

Enquiry: Identify measured composite z-score associated with CC(C)=NOCc1cccc(-c2cc(-c3ccccc3)no2)c1
Return: 0.464

Enquiry: For COc1cccc([C@H]2Oc3ccc(OC)cc3C(=NO[C@H](C)c3cn([C@@H]4COC[C@H]4O)nn3)[C@@H]2O)c1 , write its composite z-score.
Return: -0.0637

Enquiry: Tell me composite z-score reported for CO[C@@H]1COC(=O)CCC[C@@H](C)[C@H](OC)COC(=O)CCC[C@H]1C
Return: -0.0557

Enquiry: Kindly indicate its recorded composite z-score. Item: COc1ccc(O[C@@H]2[C@H](O)CO[C@H]2C=CC#Cc2ccccc2)cc1
Return: 0.73
